- tested system: T1, Human NKp46 Fc tag (Acro Biosystems, NC1-H5257) (human, UniProt O76036 22-255)
- T1 construct: bought; also called Fc-tagged human NKp46
- T1 sequence (O76036 22-255 limits assumed): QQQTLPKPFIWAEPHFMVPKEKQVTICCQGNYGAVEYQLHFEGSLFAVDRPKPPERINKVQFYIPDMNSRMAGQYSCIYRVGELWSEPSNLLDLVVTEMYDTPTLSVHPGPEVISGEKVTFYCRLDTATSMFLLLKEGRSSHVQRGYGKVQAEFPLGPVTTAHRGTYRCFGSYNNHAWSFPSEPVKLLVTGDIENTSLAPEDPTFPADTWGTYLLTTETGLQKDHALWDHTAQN
- assay info: SPR Method 1 and/or 2
Numbered stars: 1 amine (or outer) side, 2 acyl side, 3 side chain; on linkers, the order of the positions; unused ones are H or OH. Bridge positions count the residues as written; N and C are the ends. Square brackets hold non-standard residues; d marks the D form. Ends that are not written are not given here. TATA = O=C(CC[*:1])N1CN(C(=O)CC[*:2])CN(C(=O)CC[*:3])C1; Dap = NC[C@H](N)C(=O)O
readout kind: pKd
Quick note: pKd means taking -log10 of the concentration in moles per liter.

Entry ACNLQAPCMQTGKVCAK (C-terminal Lys(PYA), scaffold TATA) [BCY15687] , pKd reported as 6.11

Entry ACDLTTHNCQWGICA-NH2 (linker 2-9-14 via TATA; also: scaffold TATA, TATB or TBMT, scaffold TATA) [BCY15107] , pKd reported as 6.40

Entry [Dap]CNLQAPCMLTGKVCA-NH2 (linker 2-8-15 via TATA; N-terminus assumed; SMILES CSCC[C@@H]1NC(=O)[C@@H]2CSCCC(=O)N3CN(CN(C3)C(=O)CCSC[C@H](NC(=O)[C@@H](N)CN)C(=O)N[C@@H](CC(N)=O)C(=O)N[C@@H](CC(C)C)C(=O)N[C@@H](CCC(N)=O)C(=O)N[C@@H](C)C(=O)N3CCC[C@H]3C(=O)N2)C(=O)CCSC[C@@H](C(=O)N[C@@H](C)C(N)=O)NC(=O)[C@H](C(C)C)NC(=O)[C@H](CCCCN)NC(=O)CNC(=O)[C@H]([C@@H](C)O)NC(=O)[C@H](CC(C)C)NC1=O, scaffold TATA) [BCY19697] , pKd reported as 5.43
